method-summary: Human liver microsomal stability of compound in microsomal protein, PBS buffer pH 7.4, NADPH, glucose-6-phosphate and glucose-6-phosphate dehydrogenase media. Aliquotes were taken at 5 time points and after stopping the reaction, supernatants were analyzed using HPLC coupled with a tandem mass spectrometer. The elimination constant, half-life, and intrinsic clearance are determined as results using linear regression analysis.
Type: ADME, microsomes, Microsome
run-conditions: microsomes
experimental-readout: Remaining (%)
// return numeric value only (unit: %, not printed)

Reported Remaining for COCc1cc(Cl)cc([C@H](Nc2ccc3c(c2)CNC3)C(=O)NCC(F)F)c1 was 94.228

Form field Remaining, entry O=C(Nc1cc2c(c(C3=CCOCC3)c1)CNC2)c1cc(F)cc2[nH]ncc12 : 90.19

Per the record, NCc1cccc(NC(=O)c2cccn3cc(CN4CCCC4)nc23)c1 has Remaining of 98.243

Value of measured Remaining for the entry COCCNC(=O)[C@H](Nc1ccc2c(c1)CNC2)c1cc(Cl)cc(C2CC2)c1 : 68.563

Reported Remaining of O=C(Nc1ccc2c(c1)CNC2)c1cc(Cl)cc2[nH]ncc12 : 87.652

The recorded Remaining for entry NCc1cccc(NC(=O)c2cc(Cl)cc(NC(=O)OCc3ccccc3)c2)c1 equals 93.647

Just so you know, measured Remaining for N#C[C@H](Nc1cccc(C(=O)O)c1)c1cc(Cl)cc2[nH]ncc12 came out at 81.554

Recorded Remaining (compound N#Cc1cccc(-c2nc3c(C(=O)Nc4ccc5c(c4)CNC5)cc(F)cc3[nH]2)c1 ): 89.52

// field: Remaining; key: NCc1cccc(NC(=O)C[C@H](NC(=O)OCc2ccccc2)c2ccc(OCc3ccccc3)c(Br)c2)c1 ; value = 79.862

Lab note: NCc1cccc(NC(=O)[C@@H](NC(=O)OCc2ccccc2)C2CCCCC2)c1 gave Remaining of 90.368

* * *

method-summary: Mouse liver microsomal stability of compound in microsomal protein, PBS buffer pH 7.4, NADPH, glucose-6-phosphate and glucose-6-phosphate dehydrogenase media. Aliquotes were taken at 5 time points and after stopping the reaction, supernatants were analyzed using HPLC coupled with a tandem mass spectrometer. The elimination constant, half-life, and intrinsic clearance are determined as results using linear regression analysis.
Format: ADME, microsomes, Microsome
run-conditions: microsomes
experimental-readout: Remaining (without cofactor) (%)
Give the quantity in %, number only.

In plain terms, Cn1ncc2c(C(=O)Nc3ccc4c(c3)CNC4)cc(Cl)cc21 has a documented Remaining (without cofactor) of 92.242

The molecule COc1cc(-c2cc(NC(=O)c3cc(F)cc4[nH]ncc34)cc3c2CNC3)ccn1 showed Remaining (without cofactor) equal to 106.757

The recorded Remaining (without cofactor) for entry O=C(Nc1ccc2c(c1)CNC2)c1ccc2[nH]cc(C3CCNCC3)c2c1 equals 94.216

For reference, reported Remaining (without cofactor) for O=C(NCC(F)F)[C@H](Nc1cc2c(cc1Br)CNC2)c1cc(Cl)cc(C2CC2)c1 stands at 97.036

// O=C(Nc1ccc2c(c1)CNC2)c1cc(F)cc2[nH]c(-c3ccc(F)cc3)nc12 : Remaining (without cofactor) value = 103.385

The reported Remaining (without cofactor) of the molecule O=C1Cc2cc(C(=O)Nc3ccc4c(c3)CNC4)ccc2N1 was 100.305

Looking up O=C(Nc1ccc2c(c1)CNC2)c1cc(Cl)cc2cn[nH]c12 , I found its Remaining (without cofactor) recorded as 98.046

* * *

method-summary: Human liver microsomal stability of compound in microsomal protein, PBS buffer pH 7.4, NADPH, glucose-6-phosphate and glucose-6-phosphate dehydrogenase media. Aliquotes were taken at 5 time points and after stopping the reaction, supernatants were analyzed using HPLC coupled with a tandem mass spectrometer. The elimination constant, half-life, and intrinsic clearance are determined as results using linear regression analysis.
Type: ADME, microsomes, Microsome
run-conditions: microsomes
I'd be grateful if you could share measured Remaining (without cofactor) for these entries.
The answer is to be given in %; state only the numeric part.

Data point: CCCC[C@@H](NC(=O)OC(C)(C)C)C(=O)N[C@@H](C(=O)NCc1ccc(CN)cc1)c1ccc(OCc2ccccc2)cc1 ; Remaining (without cofactor) = 99.499

Quick note, Remaining (without cofactor) for O=C(N[C@H]1[C@H]2CCCCC[C@H]2[C@H]1C(=O)Nc1cccc(C2CCNCC2)c1)OCc1ccccc1 landed at 103.638

Summary for this molecule, CNC(=O)[C@H](Nc1cccc(-c2nn[nH]n2)c1)c1cc(Cl)cc2[nH]ncc12 : Remaining (without cofactor) is 105.868

Form: molecule = CNC(=O)[C@H](Nc1ccc2c(c1)CNC2)c1cc(Cl)cc(C2CC2)c1 ; Remaining (without cofactor) = 112.656

Reported Remaining (without cofactor) for O=C(Nc1cc(Cl)cc(C(=O)Nc2ccc3c(c2)CNC3)c1)OCc1ccccc1 was 98.946

The reported value for O=C(Nc1ccc2c(c1)CNC2)c1cc(Cl)cc2cn[nH]c12 in terms of Remaining (without cofactor) is 104.393

So for O=C(Nc1cc2c(cc1Br)CNC2)c1cc(F)cc2[nH]ncc12 , the logged Remaining (without cofactor) turned out to be 98.81

Form field Remaining (without cofactor), entry O=C(/C=C/c1ccccc1)C(=O)N1CCN(CCc2ccccc2)CC1 : 98

Input NCc1cccc(NC(=O)C[C@H](NC(=O)OCc2ccccc2)c2ccc(OCc3ccccc3)c(Br)c2)c1 . Output Remaining (without cofactor): 98.099

* * *

method-summary: Human liver microsomal stability of compound in microsomal protein, PBS buffer pH 7.4, NADPH, glucose-6-phosphate and glucose-6-phosphate dehydrogenase media. Aliquotes were taken at 5 time points and after stopping the reaction, supernatants were analyzed using HPLC coupled with a tandem mass spectrometer. The elimination constant, half-life, and intrinsic clearance are determined as results using linear regression analysis.
Type: ADME, microsomes, Microsome
run-conditions: liver microsomes
experimental-readout: microsomal CLint

Looking up NCc1cccc(NC(=O)[C@@H](NC(=O)OCc2ccccc2)c2ccc(OCc3ccccc3)cc2)c1 , I found its microsomal CLint recorded as 11 µL/min/mg

Measured microsomal CLint, CNC(=O)[C@H](Nc1ccc(-c2nnn[nH]2)cc1)c1cc(Cl)cc(C2CC2)c1 : < 10 µL/min/mg

Query NCc1cccc(NC(=O)[C@@H](NC(=O)OCc2ccccc2)C(C2CCC2)C2CCC2)c1 yields microsomal CLint of 12.6 µL/min/mg

Please fill in: microsomal CLint reported for CNC(=O)[C@H](Nc1ccc2c(c1)CNC2)c1cc(Cl)cc(C2CC2)c1 = < 10 µL/min/mg

The value of microsomal CLint measured for the compound CC(C)n1cc2c(C(=O)Nc3ccc4c(c3)CNC4)cc(Cl)cc2n1 turned out to be < 10 µL/min/mg

# microsomal CLint of O=C(Nc1cc2c(c(C3=CCOCC3)c1)CNC2)c1cc(F)cc2[nH]ncc12 = < 10 µL/min/mg

Entry O=C(Nc1cc(Cl)cc(C(=O)Nc2ccc3c(c2)CNC3)c1)OCc1ccccc1 ; microsomal CLint = 12.7 µL/min/mg

What the record says about NCc1cccc(NC(=O)c2cccn3cc(CN4CCCC4)nc23)c1 : microsomal CLint is < 10 µL/min/mg

The recorded microsomal CLint for entry N#CCCNC(=O)[C@H](Nc1ccc2c(c1)CNC2)c1cc(Cl)cc(C2CC2)c1 equals < 10 µL/min/mg

Looking up O=C(Nc1ccc2c(c1)CNC2)c1ccc2[nH]cc(C3CCNCC3)c2c1 , I see its microsomal CLint listed as < 10 µL/min/mg

* * *

method-summary: Human liver microsomal stability of compound in microsomal protein, PBS buffer pH 7.4, NADPH, glucose-6-phosphate and glucose-6-phosphate dehydrogenase media. Aliquotes were taken at 5 time points and after stopping the reaction, supernatants were analyzed using HPLC coupled with a tandem mass spectrometer. The elimination constant, half-life, and intrinsic clearance are determined as results using linear regression analysis.
Format: ADME, microsomes, Microsome
run-conditions: microsomes
experimental-readout: Remaining (without cofactor) (%)
# unit: % | format: bare number

// Remaining (without cofactor) lookup, compound = O=C(O)c1cc(Cl)c(F)cc1S(=O)(=O)Nc1ccc(Oc2ccccc2Cl)cc1 , result: 97.65

The recorded Remaining (without cofactor) for O=C(Nc1ccc2c(c1)CNC2)c1cc(F)cc2c1CCC2 is 102.779

What the record says about CC(C)n1cc2c(C(=O)Nc3ccc4c(c3)CNC4)cc(Cl)cc2n1 : Remaining (without cofactor) is 96.957

According to the records, this compound O=C(Nc1ccc2c(c1)CNC2)c1cc(Cl)cc2c1cnn2C1CCC1 displays Remaining (without cofactor) of 105.277

Remaining (without cofactor) reported for this compound O=C(Nc1ccc2c(c1)CNC2)c1cc(F)cc2[nH]ncc12 : 98.509

Looking up O=C(Nc1ccc2c(c1)CNC2)c1cc(Cl)cc2[nH]ncc12 , I found its Remaining (without cofactor) recorded as 96.46

The reported value for O=C(NCC(F)F)[C@H](Nc1ccc2c(c1)CNC2)c1cc(Br)cc2nc[nH]c12 in terms of Remaining (without cofactor) is 106.151

The value of Remaining (without cofactor) measured for the compound CSc1cc2c(cc1NC(=O)c1cc(F)cc3[nH]ncc13)CNC2 turned out to be 103.344

Item: Cn1ncc2c(C(=O)Nc3ccc4c(c3)CNC4)cc(Br)cc21 | Remaining (without cofactor): 108.267

Query NCc1cccc(NC(=O)C[C@@H](NC(=O)OCc2ccccc2)c2ccc(OCc3ccccc3)cc2)c1 yields Remaining (without cofactor) of 105.768

Entry C=CC[C@H](Nc1ccc(-c2nn[nH]n2)cc1)c1cc(Cl)cc(NC(=O)OCc2ccccc2)c1 , Remaining (without cofactor) reported as 100.465

Lab book: Remaining (without cofactor) of O=C(Nc1cc2c(c(C3=CCS(=O)(=O)CC3)c1)CNC2)c1cc(F)cc2[nH]ncc12 noted as 96.094

The recorded Remaining (without cofactor) for CC[C@@H](Cc1nnn[nH]1)c1ccc(NC(=O)c2cc(Cl)cc(NC(=O)OCc3ccccc3)c2)cc1 is 100.68

Clc1ccc2[nH]cc(Cc3ccc(-c4nn[nH]n4)cc3)c2c1 has a reported Remaining (without cofactor) of 98.069

Remaining (without cofactor) reading for O=C(Nc1cc2c(cc1C1CC1)CNC2)c1cc(F)cc2[nH]ncc12 : 104.155

# Remaining (without cofactor) of CC(C)c1nc2c(C(=O)Nc3cccc(CN)c3)cccc2[nH]1 = 99.543

Remaining (without cofactor) reading for O=C(NCC(F)F)[C@H](Nc1cc2c(cc1Br)CNC2)c1cc(Cl)cc(C2CC2)c1 : 94.723

Recorded Remaining (without cofactor) (compound O=C(Nc1cc(Cl)cc(C(=O)Nc2n[nH]c3c2CNC3)c1)OCc1ccccc1 ): 95.38

The compound listed as O=C1Cc2c(cc(F)cc2C(=O)Nc2ccc3c(c2)CNC3)N1 has a reported Remaining (without cofactor) of 112.283

Per the record, Nc1ccncc1-c1cc(F)cc(C(=O)Nc2ccc3c(c2)CNC3)c1 has Remaining (without cofactor) of 102.026

# Remaining (without cofactor) of Cc1cc(-c2ccc([C@@H](NC(=O)OCc3ccccc3)C(=O)Nc3cccc(CN)c3)cc2)cs1 = 101.077

The compound listed as CNC(=O)[C@H](Nc1ccc(-c2nnn[nH]2)cc1)c1cc(Cl)cc(C2CC2)c1 has a reported Remaining (without cofactor) of 100.18

Per the records, this compound ( Cn1cc2c(C(=O)Nc3ccc4c(c3)CNC4)cc(F)cc2n1 ) has Remaining (without cofactor) equal to 105.44

Kindly note the recorded Remaining (without cofactor) for COc1cc(C#N)cc([C@H](Nc2ccc3c(c2)CNC3)C(=O)NCC(F)F)c1 , which is 104.062

The recorded Remaining (without cofactor) for entry NCc1cccc(CNC(=O)[C@@H](NC(=O)OCc2ccccc2)c2ccc(OCc3ccccc3)cc2)c1 equals 89.996

Per the records, this compound ( Cc1ccc(NC(=O)c2cc(Cl)cc(NC(=O)OCc3ccccc3)c2)cc1CN ) has Remaining (without cofactor) equal to 97.11

Note to self: Remaining (without cofactor) recorded for NCc1cc(Cl)cc(C(=O)Nc2ccc3c(c2)CNC3)c1 was 109.308

Reported Remaining (without cofactor) ( CC(C)CNC(=O)c1cc(Cl)c(F)cc1NS(=O)(=O)c1ccc(Oc2ccccc2Cl)cc1 ) = 98

Quick note, Remaining (without cofactor) for Cn1c(=O)[nH]c2c(C(=O)Nc3ccc4c(c3)CNC4)cc(Br)cc21 landed at 85.479

response.value for O=C(NCC(F)F)[C@H](Nc1ccc2c(c1)CNC2)c1cc(Cl)cc2c1CCC2 (field: Remaining (without cofactor)) = 105.323

Entry under test: CCc1cc(C(=O)Nc2cccc(CN)c2)sc1-c1ccc(Cl)cc1 . Its Remaining (without cofactor) was 98.952
